assay: solvent given as SMILES; conditions: in ClC(Cl)Cl
Measurement Kind: absorption maximum (nm)

In: Value lookup for absorption maximum; key = `CN(C)c1ccc2nc(-c3ccc(C(=O)O)cc3)sc2c1`
Out: 400

In: # lookup: absorption maximum of `CCC1=C(C)C(=O)n2c1cc1[nH]c(C(=O)OC(C)(C)C)c(C)c1c2=O`
Out: 397

In: Given the entry `CN(C)c1ccc2nc(-c3ccc(C(=O)OC(C)(C)C)cc3)sc2c1` , report its measured absorption maximum.
Out: 392

In: Report absorption maximum for `COc1ccc(N(c2ccc(OC)cc2)c2cc3ccc4cc(B(c5c(C)cc(C)cc5C)c5c(C)cc(C)cc5C)cc5ccc(c2)c3c45)cc1` please.
Out: 399

In: Need absorption maximum, item `C[Si](C)(C)C#C[Si](c1c2ccccc2cc2ccccc12)(c1c2ccccc2cc2ccccc12)c1c2ccccc2cc2ccccc12`
Out: 404

In: Which absorption maximum value belongs to `CCc1ccc(-n2c3ccccc3c3cc4c(cc32)c2ccccc2n4-c2ccc(CC)s2)s1` ?
Out: 398

====

experiment: solvent given as SMILES; settings: in C1CCOC1
Measurement Kind: absorption maximum (nm)

In: Param item = `F[B-]1(F)Oc2c(-c3cccc4c3O[B-](F)(F)[n+]3c(-c5ccccc5)c(-c5ccccc5)n(-c5ccc(C(F)(F)F)cc5)c3-4)cccc2-c2n(-c3ccc(C(F)(F)F)cc3)c(-c3ccccc3)c(-c3ccccc3)[n+]21` ; retrieve measured absorption maximum.
Out: 342

In: Find the recorded absorption maximum belonging to `c1ccc2c(c1)-c1ccccc1C21c2ccccc2-c2sc3c(c21)C1(c2ccccc2-c2ccccc21)c1ccccc1-3` and report it.
Out: 373

In: Entry `FC(F)(F)c1ccc(/C=C2\C=C(c3ccccc3)C=C2c2ccccc2)cc1` : reported absorption maximum = ?
Out: 450

In: Recorded absorption maximum of `COC(=O)CN1C(=O)c2cc3ccc(N(C)C)cc3cc2C1=O` , please.
Out: 373

In: Look up absorption maximum: `c1ccc(-c2nc(-c3ccc(-c4ccc(N(c5ccccc5)c5ccccc5)cc4)cn3)oc2-c2ccccc2)cc1`
Out: 351

In: Need absorption maximum, item `COc1ccc(N(c2ccc(OC)cc2)c2cc3ccc4cc(B(c5c(C)cc(C)cc5C)c5c(C)cc(C)cc5C)cc5ccc(c2)c3c45)cc1`
Out: 399

In: Recorded absorption maximum for `c1ccc(C2=C(c3ccccc3)[Si](c3ccccc3)(c3ccccc3)c3ccccc32)cc1` , please?
Out: 330

In: I am curious: what absorption maximum value has been reported for `CC[n+]1ccc2ccccc2c1/C=C/c1c([O-])ccc2ccc(=O)oc12` ?
Out: 629.86

In: Give the measured absorption maximum of `N#Cc1c(N2CCCC2)cc(-c2ccccc2)c2c1-c1ccccc1C2=O` .
Out: 392

In: // lookup absorption maximum for `CCCCN1C(=O)c2cccc3c([O-])c(/C=C/c4sc5ccccc5[n+]4CC)cc(c23)C1=O`
Out: 586.75

====

assay: solvent given as SMILES; settings: in CO
Measurement Kind: absorption maximum (nm)

The following compounds have reported results that may help.
In: If you can, please state the reported absorption maximum value of `Cc1cc(C)c(B(c2cc(C#Cc3ccccc3)sc2-c2sc(C#Cc3ccccc3)cc2P(=O)(c2ccccc2)c2ccccc2)c2c(C)cc(C)cc2C)c(C)c1` .
Out: 400

In: Query (compound): `CCCCCCCCCCCCCCCC[n+]1ccc(/C=C/c2ccccc2O)cc1` ; field requested: absorption maximum
Out: 503.8

In: Reported absorption maximum for `CC1=CC(Br)=CN2C[n+]3cc(Br)cc(C)c3N=C12` : what is it?
Out: 436

In: Consider the compound shown here: `c1ccc(-c2nc(-c3ccccc3)n3ccccc23)cc1` What is its recorded absorption maximum?
Out: 301

In: Fill in the blank: the reported absorption maximum of `F[B-]1(F)N(c2ccccc2)C=Cc2cccc[n+]21` is ____.
Out: 417

In: For the compound shown here, CCCCC(CC)CO[N+](=O)[O-] (stereo unspecified) , give the reported absorption maximum.
Out: 218

(I) BrC1=CN2C[n+]3cc(Br)ccc3N=C2C=C1
(II) CCCN1/C(=C/C=C(/C=C/C2=[N+](CCC)c3ccccc3C2(C)C)c2cc[n+](C)cc2)C(C)(C)c2ccccc21
In: Which is greater in absorption maximum, the first item I or the second item II ? Answer with the label corresponding to your selection.
Out: II

(1) O=C1c2ccccc2-c2c(-c3cccc(Cl)c3O)[nH]c(=O)n21
(2) Cc1ccc(C2=C3C=C(I)C(I)=[N+]3[B-](F)(F)n3c2cc(I)c3I)cc1
In: Which of the two items, 1 and 2 , has the greater recorded absorption maximum? Kindly state the label of the option you pick.
Out: 2

(1) Cc1ccc(C2=C3C=C(I)C=[N+]3[B-](F)(F)n3c2cc(I)c3I)cc1
(2) CC(C)(C)C1Nc2ccccc2C(=O)N1Cc1ccccc1 (stereo unspecified)
In: Task for the reader: decide whether 1 or 2 has the larger absorption maximum. Could you answer with the label of the item you picked?
Out: 1
(1: 557.5 nm, 2: 353 nm)

(A) Cn1c2ccccc2[c+](-c2ccccc2)c2cc([N+](=O)[O-])ccc21
(B) C#CCOc1ccc(/C=C/C2=[N+]3C(=C(c4ccc(N(CC)CC)cc4)c4c(C)cc(/C=C/c5ccc(OCC(=O)OC)cc5)n4[B-]3(F)F)C(C)=C2)cc1
In: Would you let me know which has the greater absorption maximum value, A or B ? Answer format: the label of the selected item.
Out: B

====

test: solvent given as SMILES; details: in CO
Measurement Kind: absorption maximum (nm)

Completed entries (count: 5):
In: Item `Cc1ccccc1C(=O)NN1C2=C(CC3=C1CC(C)(C)CC3=O)C(=O)CC(C)(C)C2` has what recorded absorption maximum?
Out: 376

In: I have this compound here, `CCOC(=O)CCOc1ccc(C(c2c(C)[nH]c3ccccc23)c2c(C)[nH]c3ccccc23)cc1OC` , and I need its recorded absorption maximum.
Out: 289

In: What value of absorption maximum has been reported for the following compound? `CC1=NN(c2ccccc2)C(=O)/C1=C/c1cn(-c2ccccc2)nc1-c1ccccc1`
Out: 364

In: Tell me the measured absorption maximum of `CS(=O)(=O)c1ccc(-c2cc3ccc(N)cc3c(=O)o2)cc1` , please.
Out: 358

In: Need absorption maximum, item `COc1ccc(/C=C/c2nc3ccccc3o2)cc1`
Out: 340

(P) O=C1C=C(Nc2ccc(F)cc2F)C(=O)c2ccccc21
(Q) Oc1ccccc1-c1nc(-c2ccccc2)c2ccccn12
In: Lower value for measured absorption maximum? Options: P , Q Refer to your chosen item by its label in the answer.
Out: Q
(Q: 299 nm, P: 443 nm)

====

assay: solvent given as SMILES; conditions: in ClCCl
Measurement Kind: absorption maximum (nm)

Examples with their reported absorption maximum follow.
In: I have this molecule here, `Cc1cc(C)c(C2=C3C=C(/C=C/C(=O)OCc4ccccc4)C=[N+]3[B-](F)(F)n3cc(/C=C/C(=O)OCc4ccccc4)cc32)c(C)c1` , and I need its recorded absorption maximum.
Out: 576

In: Give its absorption maximum value. Item: `CCC(CC)COC1=CC2=C3c4cc(OCC(CC)CC)c(-c5ccccc5)n4[B-](F)(F)[n+]4nnn(c43)[B-](F)(F)[N+]2=C1c1ccccc1`
Out: 700

In: Param item = `O=C1/C(=C\c2ccc3oc4ccccc4c3c2)S(=O)(=O)c2ccccc21` ; retrieve measured absorption maximum.
Out: 372

In: Entry `c1ccc2c(c1)ccc1c3ccccc3ccc21` has what absorption maximum?
Out: 322

(a) Cc1cc(O)c(C(=O)/C=C/c2ccccc2)c(=O)o1
(b) CC(C)[Si](C#Cc1c2cc3ccccc3cc2c(C#C[Si](C(C)C)(C(C)C)C(C)C)c2nc3ccccc3nc12)(C(C)C)C(C)C
In: Would you mind telling me which has the lower recorded absorption maximum between a and b ? Give the label of your selection.
Out: a

====

test: solvent given as SMILES; conditions: in C1CCCCC1
Measurement Kind: absorption maximum (nm)

Examples with answers:
In: Data request, read-out absorption maximum, for `Cc1cc(C)c(B(c2c(C)cc(C)cc2C)c2cc3cc(N(C)C)c4ccccc4c3c3c2ccc2ccccc23)c(C)c1`
Out: 430

In: Bench note: what absorption maximum did `COc1ccc2c(c1)c1c(OC)c3ccccc3c(OC)c1n2C` show?
Out: 421

In: Given the compound `Oc1ccc(/N=C/c2ccccc2Oc2ccccc2)cc1` , what is its reported absorption maximum?
Out: 348

(P) C(#Cc1ccccc1)C1=Cc2ccc3ccccc3c2NB1c1ccccc1
(Q) Cc1ccc(C2=C3C=C(I)C=[N+]3[B-](F)(F)n3c2cc(I)c3I)cc1
In: For the pair P and Q , which member has the lower absorption maximum number? Could you answer with the label of the item you picked?
Out: P

meta.source: the Deep4Chem optical property database
